Assignment: determine reported logP for the given compounds.
Answers are plain numbers.

> print(dat)
                                   compound  observation.type  observed.value
1            N#CC(C#N)=NNc1ccc(C(=O)CCl)cc1              logP            2.15
2  CCC(CC)C(=O)NC(CO)C(O)c1ccc([N+](=O)[O-])cc1 (configuration not stated)              logP            1.71
3                        Cc1cccc2cccc(C)c12              logP            4.26
4  Nc1nc2c(ncn2[C@H]2C[C@H](O)[C@@H](CO)O2)c(=S)[nH]1              logP           -0.56
5                 CC[n+]1cccc2ccccc21.[Br-]              logP           -2.76
6                         Nc1ncnc2[nH]cnc12              logP           -0.09

Consider the following items and state reported logP for each.
1. CS(=O)CC(=O)C=NO (configuration not stated)
2. NNC(=O)c1ccccc1
3. O=[N+]([O-])c1ccc(O)c(O)c1
4. CCOP(=O)(OCC)Oc1cc(C)nc(C(C)C)n1
5. CON(C)C(=O)Nc1ccc(F)cc1

-0.72
0.19
1.66
2.07
1.46

Consider the following items and state reported logP for each.
1. CC(C)C(=O)NN
2. NC(C(=O)O)c1ccccc1 (configuration not stated)
3. NC(=O)c1ccccc1N
4. CCOP(=S)(OCC)Oc1ccc([N+](=O)[O-])cc1
5. C=CCOc1ccccc1Cc1cnc(N)nc1N
6. CC(=O)c1ccccc1C(=O)O
7. NC(=O)c1cnc2ccccc2c1

1. -0.63
2. -1.7
3. 0.35
4. 3.83
5. 2.31
6. 0.81
7. 1.06

Consider the following items and state reported logP for each.
1. COP(=O)(OC)C(O)C(Cl)(Cl)Cl (configuration not stated)
2. Nc1ccc(C(=O)Oc2ccccc2F)c(O)c1
3. Cc1ccc(C=C(C#N)C#N)cc1
4. Cc1ccc(OCC(=O)O)cc1
5. COC(=O)NC(=S)Nc1ccccc1NC(=S)NC(=O)OC
6. c1ccc(OP2OCCO2)cc1
7. COc1ccc2cccnc2c1

[0.51, 3.29, 2.4, 1.86, 1.4, 1.42, 2.37]

Consider the following items and state reported logP for each.
1. COc1ccc(C(=O)O)cc1OC
2. CCOc1cn[nH]c1
3. O=C(OCCCc1cnc[nH]1)c1ccccc1
4. ClC1C=CC(Cl)C(Cl)C1Cl (configuration not stated)
5. Nc1ccc(-c2ccc(N)cc2)cc1
6. Brc1ccc(Br)cc1
7. CN(C)c1cccc2cccnc12

1.61
0.8
2.64
3.08
1.34
3.79
2.73
